- Test system: P388 leukemia ip, CD2F1 mice, survival T/C
- assay name: NCI In Vivo Anticancer Drug Screen. Data for tumor model P388 Leukemia (intraperitoneal) in CD2F1 (CDF1) mice
- assay setup: endpoint: median survival time; dose: 100.0 mg/kg/injection; schedule: Q04DX002 (ip); vehicle: Klucel (hydroxypropylcellulose) (HPC); higher = longer survival
Toxic doses and inconclusive results are not listed.
measured parameter: T/C

In plain terms, Cc1cccc(N=Nc2c(-c3ccccc3)nn(C(N)=S)c2C)c1C has a documented T/C of 94 % of control

For O=C1C(=Cc2ccc(Cl)cc2)C(=O)N(c2ccccc2)C(=S)N1c1ccccc1 the compound record lists T/C as 101 % of control

So, CCCCC1(CCCCCCCCC(O)CC(=O)OCC)OCCO1 (centres undefined) ? Its T/C was 104 % of control

# T/C of CCCCCC(/C=C/C1C(O[Si](C)(C)C(C)(C)C)CC(N(C)C)C1(C/C=C/CCCC(=O)OC)S(=O)(=O)c1ccccc1)O[Si](C)(C)C(C)(C)C (centres undefined) = 91 % of control
